Assay: gradient 5% acetonitrile 3 min, to 50% in 2 min, to 85% in 15 min, held 3 min, 100 µL/min
Settings: column: Zorbax Extend-C18 2.1 x 50 mm; eluents: water / acetonitrile, 0.1% formic acid
assayMetric: RP-LC retention time (s)

Consider the following illustrative entries.
{"compound": "O=C(c1noc2ccc(S(=O)(=O)N3CCCc4ccccc43)cc12)N1CCCCC1", "RP-LC retention time (s)": 1090}
{"compound": "O=C(N[C@H]1C[C@@H]2C[C@H]1N(C(=O)Nc1ccc(Cl)cc1F)C2)c1cccs1", "RP-LC retention time (s)": 855}
{"compound": "COC(=O)c1cccc(N2C=C(C(=O)N3CCCC3)S(=O)(=O)c3ccc(Cl)cc32)c1", "RP-LC retention time (s)": 831}
{"compound": "CN(CCc1noc(COc2ccccc2F)n1)C(=O)CCc1ccccc1", "RP-LC retention time (s)": 931}
{"compound": "Cc1ccc(-c2noc(-c3ccc(=O)n(Cc4cc(C)ccc4C)c3)n2)cc1", "RP-LC retention time (s)": 1260}

P: COc1ccc(CNC(=O)c2cn(-c3cc(N4CCCC(C)C4)ncn3)cn2)cc1 (centres undefined)
Q: COC(=O)c1ccc(C(=O)OC)c(=O)[nH]1
Which one would you say has the larger RP-LC retention time value: P , or Q ? API: response body contains the label of the selected item.
P

P: Cc1nn(CC(=O)N2CCN(c3ccc(Cl)cc3)CC2)c(=O)c2nc(C(C)C)sc12
Q: CSc1ccc(CN2CC(c3nc(C)no3)C2)cc1
Lab note: check whether P or Q shows the higher recorded RP-LC retention time. When you have decided, please share the label of that item.
P
(P: 921 s, Q: 530 s)

###

Test: gradient 5% acetonitrile 3 min, to 50% in 2 min, to 85% in 15 min, held 3 min, 100 µL/min
Settings: column: Zorbax Extend-C18 2.1 x 50 mm; eluents: water / acetonitrile, 0.1% formic acid
assayMetric: RP-LC retention time (s)

Examples with their reported RP-LC retention time follow.
{"compound": "O=C1CC(c2noc(-c3ccccc3)n2)CN1c1ccccc1 (stereo not given)", "RP-LC retention time (s)": 921}
{"compound": "CCCOCCOC(=O)C1=C(C)NC2=C(C(=O)C(C(=O)OC)C(C)C2)C1c1ccccc1F (stereo not given)", "RP-LC retention time (s)": 946}
{"compound": "C=CCNC(=O)c1c(O)c2cccnc2n(-c2ccc(OC)cc2)c1=O", "RP-LC retention time (s)": 1020}
{"compound": "CCNC(=O)c1ccc(N2CCc3ccccc32)s1", "RP-LC retention time (s)": 824}
{"compound": "CC1CN(C(=O)CCC(=O)NCCCN2CCN(C3CCCCC3)CC2)c2ccccc2O1 (stereo not given)", "RP-LC retention time (s)": 602}
{"compound": "CCn1cc(S(=O)(=O)Nc2ccc(C)c(C)c2)c2cccnc21", "RP-LC retention time (s)": 887}
{"compound": "CSc1cccc(NC(=O)N2CCC(C)(C(=O)NCc3ccc(C)cc3)CC2)c1", "RP-LC retention time (s)": 917}
{"compound": "CCCCNC(=O)C1CCCN(c2nnc3ccc(C(F)(F)F)cn23)C1 (stereo not given)", "RP-LC retention time (s)": 751}

I: O=C1CN(S(=O)(=O)c2cccc3cccnc23)C2(CCCC2)CN1
II: CCn1cccc1-c1nc(C)c(C(=O)Nc2ccc(C)c(C)c2)s1
# returns the entry with the larger RP-LC retention time; inputs I and II // respond with label for picked entry
II

###

Assay: gradient 5% acetonitrile 3 min, to 50% in 2 min, to 85% in 15 min, held 3 min, 100 µL/min
Settings: column: Zorbax Extend-C18 2.1 x 50 mm; eluents: water / acetonitrile, 0.1% formic acid
assayMetric: RP-LC retention time (s)

{"compound": "CCN(CC)CCNC(=O)CN1C(=O)C2CCCCN2c2ccc(C(=O)N(C)C)cc21 (stereo not drawn)", "measureUnit": "s", "RP-LC retention time": 601}
{"compound": "CC(=O)c1cccc(NC(=O)Cn2c(=O)n(-c3ccc(C)cc3)c(=O)c3c2cc(C)n3C)c1", "measureUnit": "s", "RP-LC retention time": 819}
{"compound": "CC(C)CNC(=O)NC1CCN(c2nc3cccnc3n(Cc3ccccc3)c2=O)CC1", "measureUnit": "s", "RP-LC retention time": 964}

A: CCNC(=O)C1CCCN(c2nc3ncn(CC(=O)Nc4ccccc4OCC)c(=O)c3s2)C1 (stereo not drawn)
B: O=C(Cn1cnc2c(sc3nc(-c4ccccc4)ccc32)c1=O)Nc1ccc(F)c(F)c1
# query: argmin of RP-LC retention time over A and B Please respond with the label that marks your chosen entry.
A

P: Cc1ccc(-c2noc(C3CCCN3C(=O)c3ccc(C(C)(C)C)cc3)n2)cc1 (stereo not drawn)
Q: Cc1cc(C)cc(NC(=O)Cn2nc3n(c2=O)CCCC3)c1
Please indicate which has the smaller reported RP-LC retention time: P , or Q . Answer with the label corresponding to your selection.
Q
(Q: 674 s, P: 1280 s)

a: COC(=O)c1ccc2c(c1)nnn2Cc1ccc(F)cc1
b: Clc1cccc(-c2nnc(-c3nc(NCCC4=CCCCC4)c4ccccc4n3)o2)c1
c: CC(C)NC(=O)N1CC[C@H](n2c(=O)n(C)c3cccnc32)C1
Sort these compounds on RP-LC retention time so the largest reading comes first. State the ranking by listing the labels in the requested order.
b, a, c

a: CN[C@H](CNC(=O)N1CCC[C@@H]([C@@H](OCCNC(=O)OC)c2cccc(Cl)c2)C1)C[C@H]1CCCOC1
b: COc1c(C(=O)Nc2ccc3c(c2)OCO3)sc2cc(Cl)ccc12
// which entry has the larger RP-LC retention time value, a or b ? Give the label of your selection.
b
(b: 1180 s, a: 780 s)

###

Assay: gradient 5% acetonitrile 3 min, to 50% in 2 min, to 85% in 15 min, held 3 min, 100 µL/min
Conditions: column: Zorbax Extend-C18 2.1 x 50 mm; eluents: water / acetonitrile, 0.1% formic acid
assayMetric: RP-LC retention time (s)

{"compound": "Cc1noc(C)c1S(=O)(=O)N1CC(N(C)Cc2cccnc2)C1", "measureUnit": "s", "assayValue": 594}
{"compound": "CCn1c(=O)c(N2CCN(C(=O)NCCCOC)CC2)nc2ccccc21", "measureUnit": "s", "assayValue": 727}
{"compound": "CC(C)c1noc(-c2ccc(-n3cnc(C(=O)N4CCSCC4)c3)nc2)n1", "measureUnit": "s", "assayValue": 863}
{"compound": "CC(C)NC(=O)c1ccc(Nc2c(-c3ccc(Cl)cc3)nc3cnccn23)cc1", "measureUnit": "s", "assayValue": 764}
{"compound": "COc1ccc(NC(=O)N2C[C@@H](F)C[C@H]2C(=O)N2CCCCC2)cc1F", "measureUnit": "s", "assayValue": 660}
{"compound": "Cc1ccc(N2C(=O)CN(S(C)(=O)=O)CC2(C)C(=O)NCc2ccc(F)cc2)cc1Cl (centres undefined)", "measureUnit": "s", "assayValue": 877}
{"compound": "CCCCn1nc2ccc(S(=O)(=O)N3CCSCC3)cn2c1=O", "measureUnit": "s", "assayValue": 847}

1: Cc1cccc(NC(=O)Cn2cnc3nc(N4CCC(C(=O)NC5CC5)CC4)sc3c2=O)c1C
2: Cc1cccc(Nc2nc(-c3ccc(F)c(C)c3)cs2)n1
// pick min by RP-LC retention time: 1 , 2 Answer by quoting the chosen item's label.
1
(1: 693 s, 2: 992 s)

###

Assay: gradient 5% acetonitrile 3 min, to 50% in 2 min, to 85% in 15 min, held 3 min, 100 µL/min
Conditions: column: Zorbax Extend-C18 2.1 x 50 mm; eluents: water / acetonitrile, 0.1% formic acid
assayMetric: RP-LC retention time (s)

Solved entries (count: 3):
{"molecule": "Cc1nc(C)c(C(=O)N2CCC(c3noc(-c4ccccn4)n3)C2)s1 (stereo not given)", "RP-LC retention time (s)": 648}
{"molecule": "c1ccc(-c2cc(N3CCN(c4ccccn4)CC3)nn2-c2ccccc2)cc1", "RP-LC retention time (s)": 831}
{"molecule": "Cc1cccc(N(C)C(=O)C(C)n2cnc3nc4c(cc3c2=O)CCCC4)c1 (stereo not given)", "RP-LC retention time (s)": 762}

I: Cc1noc(C)c1C(=O)N1CCCC1Cc1noc(-c2cnccn2)n1 (stereo not given)
II: CCc1cccc(C)c1NC(=O)Cn1nc(N2CCC(C)CC2)c2ccccc2c1=O
Identify the entry with the larger RP-LC retention time. Options: I and II Please reply using the label of the selected record.
II
(II: 1160 s, I: 661 s)

###

Experiment: gradient 5% acetonitrile 3 min, to 50% in 2 min, to 85% in 15 min, held 3 min, 100 µL/min
Details: column: Zorbax Extend-C18 2.1 x 50 mm; eluents: water / acetonitrile, 0.1% formic acid
assayMetric: RP-LC retention time (s)

Examples from the recorded data:
{"compound": "CCN(CC)c1ncc2c(n1)CCC(C(=O)Nc1cccc(C(=O)OC)c1)C2 (stereo not given)", "RP-LC retention time, s": 660}
{"compound": "COc1cccc(CNC(=O)c2nnc(-c3ccc(S(=O)(=O)N4CCCCC4)cc3)o2)c1", "RP-LC retention time, s": 960}
{"compound": "Cc1ccc(S(=O)(=O)N2CCN(C(=O)c3ccccc3Cl)CC2)cc1C", "RP-LC retention time, s": 669}
{"compound": "CC(CNC(=O)CCS(=O)(=O)c1ccc2c(c1)CCN2C(=O)C1CC1)c1ccccc1 (stereo not given)", "RP-LC retention time, s": 840}
{"compound": "COCCCNC(=O)CC1Sc2ncccc2N(C)C1=O (stereo not given)", "RP-LC retention time, s": 600}
{"compound": "CCn1ccc(NC(=O)c2cccc(C)c2)n1", "RP-LC retention time, s": 743}
{"compound": "Cc1ccc2oc(N3CCCN(C(=O)c4ccc(-c5noc(C6CC6)n5)cc4)CC3)nc2n1", "RP-LC retention time, s": 648}
{"compound": "Cc1ccc(-c2cc3c(=O)n(Cc4noc(CN5CCCC5)n4)ccn3n2)cc1C", "RP-LC retention time, s": 697}

a: COc1cc(C)c(Cc2cnc(N)nc2N)cc1OC
b: CC(C)c1nc2c(NC(=O)c3ccc(Br)o3)cccn2n1
Hello, I am sorting some records. Could you say if a or b has the smaller RP-LC retention time value? Refer to your chosen item by its label in the answer.
a
(a: 623 s, b: 908 s)
